Tested on: SUDV (glycoprotein, VSV pseudotype)
Assay: microbe, parasite or virus in culture
Format: cell-based, Sudan ebolavirus
Settings: Vesicular stomatitis virus, Vero, 24 h, read-out: EC50 Pseudotype Assays SUDV

- compound: "CCC12CC3CC(C(=O)N[C@@H]4CCNC[C@@H]4F)(C1)CC(c1ccccc1)(C3)C2 (mixture of isomers)"
  value unit: "nM"
  relation symbol: "="
  EC50: 500
- compound: "C[C@H]1C[C@@H](NC(=O)C23CC4CC(C)(C2)CC(c2ccccc2)(C4)C3)CCN1 (mixture of isomers)"
  value unit: "nM"
  relation symbol: "="
  EC50: 730
- compound: "CC12CC3CC(C(=O)N4CCCC(N)CC4)(C1)CC(c1ccccc1)(C3)C2 (racemic)"
  value unit: "nM"
  relation symbol: "="
  EC50: 370
- compound: "C[C@@]12CC3CC(CN4CCC(N)CC4)(C1)C[C@](c1ccccc1)(C3)C2"
  value unit: "nM"
  relation symbol: "="
  EC50: 310
- compound: "C[C@@]12CC3CC(C(=O)N[C@H]4CCNC[C@@H]4F)(C1)C[C@](c1ccccc1)(C3)C2"
  value unit: "nM"
  relation symbol: "="
  EC50: 480
- compound: "CC[C@]12CC3CC(C(=O)N[C@H]4CC[C@H](N)CC4)(C1)C[C@@](c1ccccc1)(C3)C2"
  value unit: "nM"
  relation symbol: "="
  EC50: 180
- compound: "CC12CC3CC(C(=O)N4CCC(N)(CO)CC4)(C1)CC(c1ccccc1)(C3)C2 (racemic)"
  value unit: "nM"
  relation symbol: "="
  EC50: 90
- compound: "CC1(C)CN(CC23CC4C[C@@](C)(C2)C[C@](c2ccccc2)(C4)C3)CC[C@@H]1N"
  value unit: "nM"
  relation symbol: "="
  EC50: 1020
- compound: "c1ccc(C23CC4CC(CC(CN5CCNCC5)(C4)C2)C3)cc1"
  value unit: "nM"
  relation symbol: ">"
  EC50: 1000
- compound: "CCC12CC3CC(CN[C@H]4CCN[C@@H](C)C4)(C1)CC(c1ccccc1)(C3)C2 (some centres unmarked)"
  value unit: "nM"
  relation symbol: "="
  EC50: 740
- compound: "CCC12CC3CC(C(=O)N[C@@H]4CCNC[C@H]4F)(C1)CC(c1ccccc1)(C3)C2 (mixture of isomers)"
  value unit: "nM"
  relation symbol: "="
  EC50: 255
- compound: "CC1CC(N)CCN1C(=O)C12CC3CC(C)(C1)CC(c1ccccc1)(C3)C2 (racemic)"
  value unit: "nM"
  relation symbol: "="
  EC50: 450
- compound: "CC12CC3CC(CN4CCC(N)CC4)(C1)CC(c1ccccc1)(C3)C2 (centres unmarked)"
  value unit: "nM"
  relation symbol: "="
  EC50: 290
- compound: "C[C@H]1C[C@@H](NC(=O)C23CC4C[C@](C)(C2)C[C@@](c2ccccc2)(C4)C3)CCN1"
  value unit: "nM"
  relation symbol: "="
  EC50: 1020
- compound: "CC1(C)CN(C(=O)C23CC4C[C@@](C)(C2)C[C@](c2ccccc2)(C4)C3)CCC1N (some centres unmarked)"
  value unit: "nM"
  relation symbol: "="
  EC50: 58
- compound: "N#CC12CC3CC(C(=O)N[C@H]4CC[C@H](N)CC4)(C1)CC(c1ccccc1)(C3)C2 (mixture of isomers)"
  value unit: "nM"
  relation symbol: ">"
  EC50: 1000
- compound: "C[C@]12CC3CC(C(=O)N[C@H]4CC[C@H](CN)CC4)(C1)C[C@@](c1ccccc1)(C3)C2"
  value unit: "nM"
  relation symbol: "="
  EC50: 230
- compound: "C[C@]12CC3CC(C(=O)N4CCC(N)C5(CC5)C4)(C1)C[C@@](c1ccccc1)(C3)C2 (some centres unmarked)"
  value unit: "nM"
  relation symbol: "="
  EC50: 75
- compound: "CC1(C)CN(C(=O)C23CC4C[C@@](C)(C2)C[C@](c2ccccc2)(C4)C3)CC[C@@H]1N"
  value unit: "nM"
  relation symbol: "="
  EC50: 40
- compound: "CC12CC3CC(C(=O)N4CCC5(CCNCC5)CC4)(C1)CC(c1ccccc1)(C3)C2 (racemic)"
  value unit: "nM"
  relation symbol: "="
  EC50: 160
- compound: "CC12CC3CC(C(=O)N4CCC(N)C(C)(C)C4)(C1)CC(c1ccccc1)(C3)C2 (racemic)"
  value unit: "nM"
  relation symbol: "="
  EC50: 80
- compound: "CC[C@@]12CC3CC(C(=O)N[C@H]4CC[C@H](N)CC4)(C1)C[C@](c1ccccc1)(C3)C2"
  value unit: "nM"
  relation symbol: "="
  EC50: 940
- compound: "CCC12CC3CC(C(=O)NC4(C)CCNCC4)(C1)CC(c1ccccc1)(C3)C2 (racemic)"
  value unit: "nM"
  relation symbol: "="
  EC50: 605
- compound: "CC1(C)CN(CC23CC4C[C@@](C)(C2)C[C@](c2ccccc2)(C4)C3)CC[C@H]1N"
  value unit: "nM"
  relation symbol: ">"
  EC50: 1000
- compound: "C[C@]12CC3CC(C(=O)N[C@@H]4CCNC[C@H]4F)(C1)C[C@@](c1ccccc1)(C3)C2"
  value unit: "nM"
  relation symbol: "="
  EC50: 240
- compound: "C[C@@]12CC3CC(C(=O)N4CCC5(CCCN5)CC4)(C1)C[C@](c1ccccc1)(C3)C2"
  value unit: "nM"
  relation symbol: "="
  EC50: 155
